# Test system: EVSA-T
# assayOverview: Proliferation assay, Method 2 (Vybrant MTT)
# Type: cell-based
# testContext: Homo sapiens, EVSA-T breast tumour cell line
assayEndpoint: IC50 (µM)

| compound | targetSystem | readingUnit | recordedMeasurement |
| --- | --- | --- | --- |
| C[C@@H](O)[C@@H](C)Oc1nc(Nc2ccc([S@](=N)(=O)C3CC3)cc2)ncc1C(F)(F)F [Compound A] | EVSA-T | µM | 0.045 |

====

# System: NCI-H1048
# assayOverview: Proliferation assay, Method 2 (Vybrant MTT)
# Type: cell-based
# testContext: Homo sapiens, NCI-H1048 (small-cell lung carcinoma)

| chemicalStructure | IC50 [nM] |
| --- | --- |
| C[C@@H](O)[C@@H](C)Oc1nc(Nc2ccc([S@](=N)(=O)C3CC3)cc2)ncc1C(F)(F)F | 25 |

====

# Test system: SK-BR-3
# assayOverview: Proliferation assay, Method 1 (crystal violet)
# Format: cell-based
# testContext: Homo sapiens, 96 h, SK-BR-3 breast tumour cell line, 4 days
assayEndpoint: IC50

| chemicalStructure | targetSystem | recordedMeasurement |
| --- | --- | --- |
| C[C@@H](O)[C@@H](C)Oc1nc(Nc2ccc([S@](=N)(=O)C3CC3)cc2)ncc1C(F)(F)F | SK-BR-3 | 13 nM |

====

# System: NCI-H661
# assayOverview: Proliferation assay, Method 2 (Vybrant MTT)
# Assay type: cell-based
# testContext: Homo sapiens, NCI-H661 (non-small-cell lung carcinoma)
pIC50: −log10 of the molar value.
assayEndpoint: pIC50

| molecule | assayEndpoint | recordedMeasurement |
| --- | --- | --- |
| C[C@@H](O)[C@@H](C)Oc1nc(Nc2ccc([S@](=N)(=O)C3CC3)cc2)ncc1C(F)(F)F [Compound A] | pIC50 | 7.27 |

====

# Tested on: DU145
# assayOverview: Proliferation assay, Method 1 (crystal violet)
# Type: cell-based
# testContext: Homo sapiens, DU-145, 96 h, DU145 prostate carcinoma cell line, 4 days

| chemicalStructure | targetSystem | IC50 / nM |
| --- | --- | --- |
| C[C@@H](O)[C@@H](C)Oc1nc(Nc2ccc([S@](=N)(=O)C3CC3)cc2)ncc1C(F)(F)F | DU145 | 8 |

====

# Tested on: NCI-H522
# assayOverview: Proliferation assay, Method 2 (Vybrant MTT)
# Format: cell-based
# testContext: Homo sapiens, NCI-H522 (non-small-cell lung carcinoma)

| compound | IC50 / nM |
| --- | --- |
| C[C@@H](O)[C@@H](C)Oc1nc(Nc2ccc([S@](=N)(=O)C3CC3)cc2)ncc1C(F)(F)F [Compound A] | 65.4 |

====

# System: NCI-H2170
# assayOverview: Proliferation assay, Method 2 (Vybrant MTT)
# Assay type: cell-based
# testContext: Homo sapiens

| chemicalStructure | IC50 / nM |
| --- | --- |
| C[C@@H](O)[C@@H](C)Oc1nc(Nc2ccc([S@](=N)(=O)C3CC3)cc2)ncc1C(F)(F)F | 48.7 |

====

# Test system: MCF 10A
# assayOverview: Proliferation assay (listed under Method 1 and Method 2)
# Type: cell-based
# testContext: Homo sapiens; MCF 10A breast cell line; method 1 or 2
pIC50: −log10 of the molar value.
assayEndpoint: pIC50

| compound | targetSystem | recordedMeasurement |
| --- | --- | --- |
| C[C@@H](O)[C@@H](C)Oc1nc(Nc2ccc([S@](=N)(=O)C3CC3)cc2)ncc1C(F)(F)F [Compound A] | MCF 10A | 7.70 |

====

# Test system: MDA-MB-435s
# assayOverview: Proliferation assay, Method 2 (Vybrant MTT)
# Format: cell-based
# testContext: Homo sapiens, MDA-MB-435s breast tumour cell line
assayEndpoint: IC50 (nM)

| chemicalStructure | assayEndpoint | readingUnit | recordedMeasurement |
| --- | --- | --- | --- |
| C[C@@H](O)[C@@H](C)Oc1nc(Nc2ccc([S@](=N)(=O)C3CC3)cc2)ncc1C(F)(F)F | IC50 | nM | 36.4 |

====

# Tested on: SK-MES-1
# assayOverview: Proliferation assay, Method 2 (Vybrant MTT)
# Format: cell-based
# testContext: Homo sapiens, SK-MES-1 (squamous-cell carcinoma)
pIC50: −log10 of the molar value.
assayEndpoint: pIC50

| chemicalStructure | targetSystem | assayEndpoint | recordedMeasurement |
| --- | --- | --- | --- |
| C[C@@H](O)[C@@H](C)Oc1nc(Nc2ccc([S@](=N)(=O)C3CC3)cc2)ncc1C(F)(F)F | SK-MES-1 | pIC50 | 7.58 |

====

# System: NCI-H1975
# assayOverview: Proliferation assay (listed under Method 1 and Method 2)
# Format: cell-based
# testContext: Homo sapiens; NCI-H1975 (non-small-cell lung carcinoma); method 1 or 2
pIC50: −log10 of the molar value.

| chemicalStructure | pIC50 |
| --- | --- |
| C[C@@H](O)[C@@H](C)Oc1nc(Nc2ccc([S@](=N)(=O)C3CC3)cc2)ncc1C(F)(F)F | 7.62 |

====

# Tested on: NCI-H460
# assayOverview: Proliferation assay (listed under Method 1 and Method 2)
# Format: cell-based
# testContext: Homo sapiens; NCI-H460 (non-small-cell lung carcinoma); method 1 or 2
pIC50: −log10 of the molar value.

| compound | pIC50 |
| --- | --- |
| C[C@@H](O)[C@@H](C)Oc1nc(Nc2ccc([S@](=N)(=O)C3CC3)cc2)ncc1C(F)(F)F [Compound A] | 7.57 |

====

# Test system: BT-549
# assayOverview: Proliferation assay, Method 2 (Vybrant MTT)
# Assay type: cell-based
# testContext: Homo sapiens, BT-549 breast tumour cell line

| chemicalStructure | IC50 (nM) |
| --- | --- |
| C[C@@H](O)[C@@H](C)Oc1nc(Nc2ccc([S@](=N)(=O)C3CC3)cc2)ncc1C(F)(F)F | 84.1 |

====

# Test system: NCI-H1581
# assayOverview: Proliferation assay, Method 2 (Vybrant MTT)
# Assay type: cell-based
# testContext: Homo sapiens, NCI-H1581 (non-small-cell lung carcinoma)
pIC50: −log10 of the molar value.
assayEndpoint: pIC50

| chemicalStructure | assayEndpoint | recordedMeasurement |
| --- | --- | --- |
| C[C@@H](O)[C@@H](C)Oc1nc(Nc2ccc([S@](=N)(=O)C3CC3)cc2)ncc1C(F)(F)F | pIC50 | 7.27 |

====

# Tested on: NCI-H358
# assayOverview: Proliferation assay, Method 2 (Vybrant MTT)
# Format: cell-based
# testContext: Homo sapiens, NCI-H358 (non-small-cell lung carcinoma)

| chemicalStructure | IC50 (nM) |
| --- | --- |
| C[C@@H](O)[C@@H](C)Oc1nc(Nc2ccc([S@](=N)(=O)C3CC3)cc2)ncc1C(F)(F)F | 19.4 |
